The following molecules are listed with their measured TGI values.
# System: HCT-116 colon
# protocolDescription: NCI tumour cell line growth inhibition, 48 h

## Input Find the recorded TGI belonging to CCCC1NC(=O)C(CC(C)C)NC(=O)c2cccc(n2)C(=O)NC(CC(C)C)C(=O)NC(CCC)C(=O)NC(C(=O)OC)CCCCNC1=O (stereo not given) and report it.
## Output > 100 µM

## Input Same read-out for Cc1ccc(S(=O)(=O)N/N=C(\CCN2CCCC2)CC(c2ccccc2)c2c(O)c3ccccc3oc2=O)cc1 (stereo not given) ?
## Output > 100 µM

----------
# Test system: SK-MEL-28 melanoma
# protocolDescription: NCI tumour cell line growth inhibition, 48 h
The following molecules are listed with their measured TGI values.
The answer is to be given in µM; state only the numeric part.

Example cases with answers are listed next.
# structureSmiles, TGI, µM
rows = [
    ("CC(C)C[C@H](NC(=O)[C@H](Cc1ccccc1)n1ccc(N2CCCCC2)cc1=O)B(O)O", 29.7),
    ("CN(C)CCNC(=O)c1ccc(Nc2nc3ccccc3c3occc23)cc1", 44),
]

# next molecule below
## Input Find the recorded TGI belonging to CCCCCCCCCOC(=O)c1cnc(Cl)cn1 and report it.
## Output 52.7
